FYI, the data here is from the supplement of paper PMC8728848.

List of glycan array binding signal (z-score) values.
# target: Gal(b1-4)GlcNAc
# protocol: glycan array binding signal (z-score within array); higher = stronger binding
# measurementConditions: glycan notation: IUPAC condensed, linker removed
This is one part of a sample in which the strongest signals are shown more often than they occur.

binder: Microvirin-2 (Microcystis aeruginosa) (protein) MPNFSHTCSSINYDPDSTILSAECQARDGEWLPTELRLSDHIGNIDGELQFGDQNFQETCQDCHLEFGDGEQSVWLVCTCQTMDGEWKSTQILLDSQIDNNDSQLEIGGSMPNFSHTCSSINYDPDSTILSAECQARDGEWLPTELRLSDHIGNIDGELQFGDQNFQETCQDCHLEFGDGEQSVWLVCTCQTMDGEWKSTQILLDSQIDNNDSQLEIG
glycan array binding signal (z-score): -0.131

binder: Protectin (Homo sapiens), P13987 (protein) MGIQGGSVLFGLLLVLAVFCHSGHSLQCYNCPNPTADCKTAVNCSSDFDACLITKAGLQVYNKCWKFEHCNFNDVTTRLRENELTYYCCKKDLCNFNEQLENGGTSLSEKTVLLLVTPFLAAAWSLHP
glycan array binding signal (z-score): 0.172

binder: HFR-3 (Triticum aestivum) (protein) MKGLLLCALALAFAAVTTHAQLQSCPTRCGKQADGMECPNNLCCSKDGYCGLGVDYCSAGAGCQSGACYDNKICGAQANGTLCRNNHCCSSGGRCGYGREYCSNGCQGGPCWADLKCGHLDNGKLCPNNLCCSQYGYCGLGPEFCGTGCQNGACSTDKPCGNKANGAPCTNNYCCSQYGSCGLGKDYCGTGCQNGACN
glycan array binding signal (z-score): -0.853
